The origin of these recorded values is ChEMBL document CHEMBL1145792.

# testDetails: LogD value was determined
# Assay type: physicochemical
# assayContext: octanol/water
measuredMetric: logD

For orientation, consider the following solved cases.
compound	measuredMetric	endpointValue
CN(C)CCOc1ccc2[nH]c(C(=O)N3CC(CCl)c4c3cc(NC(=O)OCc3ccc([N+](=O)[O-])cc3)c3ccccc43)cc2c1 (centres undefined)	logD	3.24
CN(C)CCOc1ccc2[nH]c(C(=O)N3CC(CCl)c4c3cc(N)c3ccccc43)cc2c1 (centres undefined)	logD	0.53

(P) COc1cc2cc(C(=O)N3CC(CCl)c4c3cc(NC(=O)OCc3ccc([N+](=O)[O-])cc3OCCCN(C)C)c3ccccc43)[nH]c2c(OC)c1OC (centres undefined)
(Q) COc1cc2cc(C(=O)N3CC(CCl)c4c3cc(NC(=O)OCc3ccc([N+](=O)[O-])cc3OCCCN3CCOCC3)c3ccccc43)[nH]c2c(OC)c1OC (centres undefined)
Problem: Given the entries P and Q , determine which has the lower reported logD. Answer format: the label of the selected item.
P
(P: 2.74, Q: 4.06)

###

# testDetails: Partition coefficient (logP)
# Type: physicochemical
# assayContext: octanol/water; read-out: logP
measuredMetric: logP

compound	measuredMetric	endpointValue
CN(C)CCOc1ccc2[nH]c(C(=O)N3CC(CCl)c4c3cc(N)c3ccccc43)cc2c1 (centres undefined)	logP	2.26
COc1cc2cc(C(=O)N3CC(CCl)c4c3cc(NC(=O)OC(C)c3ccc([N+](=O)[O-])cc3)c3ccccc43)[nH]c2c(OC)c1OC (centres undefined)	logP	4.9
NC(=O)c1cc(N(CCBr)CCBr)c([N+](=O)[O-])cc1[N+](=O)[O-]	logP	2.68
COc1cc2cc(C(=O)N3CC(CCl)c4c3cc(NC(=O)OCc3ccc([N+](=O)[O-])cc3OCC(O)CO)c3ccccc43)[nH]c2c(OC)c1OC (centres undefined)	logP	3.38
COc1cc2cc(C(=O)N3CC(CCl)c4c3cc(N(C)C(=O)OCc3ccc([N+](=O)[O-])cc3)c3ccccc43)[nH]c2c(OC)c1OC (centres undefined)	logP	3.98
COc1cc2cc(C(=O)N3CC(CCl)c4c3cc(N)c3ccccc43)[nH]c2c(OC)c1OC (centres undefined)	logP	1.87
COc1cc2cc(C(=O)N3CC(CCl)c4c3cc(NC(=O)OCc3ccc([N+](=O)[O-])cc3OCCO)c3ccccc43)[nH]c2c(OC)c1OC (centres undefined)	logP	3.79
COc1cc2cc(C(=O)N3CC(CCl)c4c3cc(NC(=O)OCc3ccc([N+](=O)[O-])cc3)c3ccccc43)[nH]c2c(OC)c1OC (centres undefined)	logP	4.55
COc1cc2cc(C(=O)N3CC(CCl)c4c3cc(NC(=O)OCc3ccc([N+](=O)[O-])cc3OCCCO)c3ccccc43)[nH]c2c(OC)c1OC (centres undefined)	logP	4.57

###

# Tested on: V79
# testDetails: Cytotoxicity in non-NTR-expressing Chinese hamster fibroblast (V79).
# Format: functional, cell-based
# assayContext: Cricetulus griseus
measuredMetric: IC50 (nM)
Field: numeric (nM). Do not append units.

For orientation, consider the following solved cases.
compound	target	endpointUnit	IC50
COc1cc2cc(C(=O)N3CC(CCl)c4c3cc(NC(=O)OCc3ccc([N+](=O)[O-])cc3OCC(O)CO)c3ccccc43)[nH]c2c(OC)c1OC (stereo unspecified)	V79	nM	42
COc1cc2cc(C(=O)N3CC(CCl)c4c3cc(NC(=O)OCc3ccc([N+](=O)[O-])cc3OCCCN(C)C)c3ccccc43)[nH]c2c(OC)c1OC (stereo unspecified)	V79	nM	45
COc1cc2cc(C(=O)N3CC(CCl)c4c3cc(NC(=O)OCc3ccc([N+](=O)[O-])cc3OCCO)c3ccccc43)[nH]c2c(OC)c1OC (stereo unspecified)	V79	nM	63
COc1cc([N+](=O)[O-])ccc1COC(=O)Nc1ccc(COC(=O)Nc2cc3c(c4ccccc24)C(CCl)CN3C(=O)c2cc3cc(OC)c(OC)c(OC)c3[nH]2)cc1 (stereo unspecified)	V79	nM	54
CNc1cc2c(c3ccccc13)C(CCl)CN2C(=O)c1cc2cc(OC)c(OC)c(OC)c2[nH]1 (stereo unspecified)	V79	nM	0.08

Record COc1cc2cc(C(=O)N3CC(CCl)c4c3cc(NC(=O)OC(C)c3ccc([N+](=O)[O-])cc3)c3ccccc43)[nH]c2c(OC)c1OC (stereo unspecified) ; system V79; IC50 = 62

Record COc1cc2cc(C(=O)N3CC(CCl)c4c3cc(N)c3ccccc43)[nH]c2c(OC)c1OC (stereo unspecified) ; system V79; IC50 = 0.33

Record COc1cc2cc(C(=O)N3CC(CCl)c4c3cc(N(C)C(=O)OCc3ccc([N+](=O)[O-])cc3)c3ccccc43)[nH]c2c(OC)c1OC (stereo unspecified) ; system V79; IC50 = 48

###

# Tested on: V79
# testDetails: Cytotoxicity in non-NTR-expressing Chinese hamster fibroblast (V79).
# Type: functional, cell-based
# assayContext: Cricetulus griseus
Catalogue of compounds with associated pIC50
# pIC50 is unitless: minus log10 of the molar concentration; print number only

For orientation, consider the following solved cases.
compound	pIC50
COCCOc1cc([N+](=O)[O-])ccc1COC(=O)Nc1cc2c(c3ccccc13)C(CCl)CN2C(=O)c1cc2cc(OC)c(OC)c(OC)c2[nH]1 (stereo not drawn)	7.51
COc1cc2cc(C(=O)N3CC(CCl)c4c3cc(NC(=O)OCc3ccc([N+](=O)[O-])cc3OCCCO)c3ccccc43)[nH]c2c(OC)c1OC (stereo not drawn)	7.32

Then there is this compound:
Value of measured pIC50 for the entry COc1cc2cc(C(=O)N3CC(CCl)c4c3cc(NC(=O)OCc3ccc([N+](=O)[O-])cc3)c3ccccc43)[nH]c2c(OC)c1OC (stereo not drawn) : 7.05
